# test-summary: NCI Yeast Anticancer Drug Screen. Data for the cln2 rad14 strain (AID 165);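 also: 0% = growth equal to vehicle treated cultures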
# cond: S. cerevisiae cln2 rad14 strain, at 50.0 µM, hits give high values
The panel holds about 79,000 compounds, 15% with a hit somewhere; the sample as a whole holds those more often.
assay-endpoint: growth inhibition (%)
Answers are plain numbers, in %.

CN(C)CCCNc1cc(O)c2c(c1O)C(=O)c1ccccc1C2=O    94.8
Nc1ccc(Cl)c2cccnc12    87.2
CC(=O)Oc1ccc(/C=C/c2ccncc2)cc1    50.1
COC(=O)c1ccc(SCC(=O)c2ccc([N+](=O)[O-])o2)cc1    95.3
O=C(Nc1c(Cl)cccc1Cl)Oc1c(Br)cc(Br)cc1Br    92.2
CO[C@H]1C[C@@H]2CC[C@@H](C)[C@@](O)(O2)C(=O)C(=O)N2CCCC[C@H]2C(=O)O[C@H]([C@H](C)C[C@@H]2CC[C@@H](OC(=O)C(C)(CO)CO)[C@H](OC)C2)CC(=O)[C@H](C)/C=C(\C)[C@@H](O)[C@@H](OC)C(=O)[C@H](C)C[C@H](C)/C=C/C=C/C=C/1C    88
O=C(Nc1ccc(Cl)cc1)Nc1cc(Cl)ccc1O    94
O=C(CBr)Oc1ccc(-c2cccc(Br)c2)cc1    98.6

Hi, could you look up growth inhibition for each item in my list?
1. CN(C)c1ccc(C(=O)C2CCCC(C)(C)C2)cc1 (configuration not stated)
2. O=[N+]([O-])c1ccc(NS(=O)(=O)c2ccccc2)c(NS(=O)(=O)c2ccccc2)c1

Resp:
[88.3, 82.1]

Hi, could you look up growth inhibition for each item in my list?
1. COc1ccc(C(c2ccc(OC)cc2)c2ccccc2C(=O)O)cc1
2. CCCCCCCCCCNCCSSCCNC(C)=O
3. Cc1cc(O)c(C(=O)/C=C/c2ccnc3ccccc23)c(=O)o1
4. Cc1c(C(=O)N(CCO)CCO)[n+](=O)c2ccccc2n1[O-]
5. Cc1cc(Cl)ccc1Nc1sc(C(=O)c2cc3cc(Cl)ccc3o2)c(N)c1C#N
6. C[n+]1c(/C=C/c2ccc(Cl)cc2)sc2ccccc21
7. CCCCCCCCCCCC(=O)OCCCCC
8. CCOC(=O)/C(=C/O)c1c[nH]c2ccccc12

Resp:
[35.9, 98.4, -13.4, 39, 83, 75.2, -2.5, 96]

Hi, could you look up growth inhibition for each item in my list?
1. COC(=O)CCCCCCCCCCC(=O)O
2. CCOC(=O)Cc1csc(/C=C/c2ccc(OC)c(OC)c2)n1
3. COc1ccc2nc3cc([N+](=O)[O-])ccc3c(NCCO)c2c1
4. Cc1cc[n+](C2CCC3(C)C(=CCC4C3CCC3(C)C(C(C)CCCC(C)C)CCC43)C2)cc1 (configuration not stated)

Resp:
-4.75
-37.2
75.1
64.3

###

# test-summary: NCI Yeast Anticancer Drug Screen. Data for the bub3 strain (AID 167)
# cond: S. cerevisiae bub3 mutant strain, at 5.0 µM (retest, dose inferred, filed as 0.5)
The panel holds about 79,000 compounds, 15% with a hit somewhere; the sample as a whole holds those more often. Calls of active or inactive are those of the source. Cut-off read from the data, not from the text of the source: active = growth inhibition above about 70%; inactive = the rest.
The categories you may choose from are 1.0 (active), 0.0 (inactive)

Some entries whose results are on file:
O=C(Nc1ccccc1O)/C(Cl)=C/Cl    0.0
CCCN(CCC)C(=O)c1cccc2ccccc12    0.0
COc1ccc2c(Cc3cc(Cl)ccc3O)cncc2c1O    0.0
O=C(O)/C=C/c1ccc(Cl)c(Cl)c1    0.0
CC(NNC(=S)N1CCCC1)c1ccccn1 (configuration not stated)    0.0

Req: GET /call?item= O=c1[nH]c(=O)c2n[nH]nc2[nH]1 returns the recorded outcome of this test.
Resp: 0.0

Req: GET /call?item= Nc1nc(-c2ccc(Cl)cc2)cs1 returns the recorded outcome of this test.
Resp: 0.0

Req: GET /call?item= Cc1ccnc(NS(=O)(=O)c2ccc(N=Cc3c4ccccc4nc4cc(Cl)ccc34)cc2)n1 returns the recorded outcome of this test.
Resp: 0.0

###

# test-summary: NCI Yeast Anticancer Drug Screen. Data for the sgs1 mgt1 strain (AID 161);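 also: 0% = growth of cultures given vehicle only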
# cond: S. cerevisiae sgs1 mgt1 strain, at 5.0 µM (retest, dose inferred, filed as 0.5)
The panel holds about 79,000 compounds, 15% with a hit somewhere; the sample as a whole holds those more often. Activity calls are given as the source filed them. Rule as the data show it: active = growth inhibition above about 70%; inactive = the rest.
The categories you may choose from are True = active, False = inactive

NC(N)=Nc1ccc(N=C(N)N)cc1    False

Req: GET /call?item= CCOc1ccccc1C(=O)Oc1cccc(C)c1 returns the recorded outcome of this test.
Resp: False

Req: GET /call?item= COC1OC2COC(c3ccccc3)OC2C(NC(=S)SCc2ccccc2)C1O (configuration not stated) returns the recorded outcome of this test.
Resp: False

Req: GET /call?item= O=C(CC1CCCC(CC(=O)c2ccccc2)N1CCc1ccccc1)c1ccccc1 (configuration not stated) returns the recorded outcome of this test.
Resp: False

Req: GET /call?item= COc1ccc(C2COc3cc(OC(C)=O)c(OC(C)=O)cc3C2)cc1 (configuration not stated) returns the recorded outcome of this test.
Resp: False

Req: GET /call?item= CC(=O)Oc1c2c(c(OC(C)=O)c3c1n(C(C)=O)c1ccccc1n3C(C)=O)n(C(C)=O)c1ccccc1n2C(C)=O returns the recorded outcome of this test.
Resp: False

Req: GET /call?item= CC[N+](C)(CC)CCC(=O)/C=C/c1ccccc1 returns the recorded outcome of this test.
Resp: False

Req: GET /call?item= Cc1ccc(C(=O)/C=C/c2ccco2)c(C)c1 returns the recorded outcome of this test.
Resp: False

Req: GET /call?item= OCCN1c2ccccc2Sc2ccc(Cl)cc21 returns the recorded outcome of this test.
Resp: False

Req: GET /call?item= CC1=Nc2ccccc2C1C(Cc1ccccc1N)c1c(C)[nH]c2ccccc12 (configuration not stated) returns the recorded outcome of this test.
Resp: False

Req: GET /call?item= CCCCCCCCCCCCCC1=NCC(C)(C)N1 returns the recorded outcome of this test.
Resp: True

Req: GET /call?item= O=C(O)c1cc2ccc3cccc4ccc(c1)c2c34 returns the recorded outcome of this test.
Resp: False

###

# test-summary: NCI Yeast Anticancer Drug Screen. Data for the mlh1 rad18 strain (AID 175)
# cond: S. cerevisiae mlh1 rad18 strain growth inhibition; at 5.0 µM (retest, dose inferred, filed as 0.5)
Compounds without any hit were thinned out: in the full panel of roughly 79,000, 15% have a hit. Calls of active or inactive are those of the source. Rule as the data show it: active = growth inhibition above about 70%; inactive = the rest.
The categories you may choose from are y = active, n = inactive

CC(C)=CCC(OC(=O)CC(C)C)C1=CC(=O)c2c(O)ccc(O)c2C1=O (configuration not stated)    n

Req: GET /call?item= CCCCCCCOC(=O)c1cc2cc(C(CC)C(CC)c3ccc(O)cc3)ccc2oc1=O (configuration not stated) returns the recorded outcome of this test.
Resp: n

Req: GET /call?item= N=Nc1c(OC(=O)Nc2cccc(Cl)c2)[nH]c2ccccc12 returns the recorded outcome of this test.
Resp: n

Req: GET /call?item= COc1ccc(/C(O)=C/c2nc3ccc([N+](=O)[O-])cc3[nH]c2=O)cc1 returns the recorded outcome of this test.
Resp: n

###

# test-summary: NCI Yeast Anticancer Drug Screen. Data for the rad50 strain (AID 155);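 also: 0% = growth of vehicle-only cultures of the same strain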
# cond: S. cerevisiae rad50 strain growth inhibition; at 5.0 µM (retest, dose inferred, filed as 0.5); hits give high values
Compounds without any hit were thinned out: in the full panel of roughly 79,000, 15% have a hit. The source made the active and inactive calls. Cut-off read from the data, not from the text of the source: active = growth inhibition above about 70%; inactive = the rest.
assay-endpoint: growth inhibition

Take a look at these entries with their results.
COc1ccc(C2=C(Cl)C(=O)N(c3ccc(Cl)cc3)C(=O)C2(Cl)Cl)cc1    12% (inactive)
CCn1c2ccccc2c(=O)c2c(OC)ccc(OC)c21    2% (inactive)
O[Si](O)(c1ccccc1)c1ccccc1    13% (inactive)

Hi, could you look up growth inhibition for each item in my list?
1. O=C1SC(c2ccccc2)=S=C1c1ccccc1
2. C=C1CC[C@@H](Br)C(C)(C)[C@]12CCC(C)(O)C(Cl)C2 (stereo partly specified)
3. Clc1ccc(CN2COc3c(ccc4cccnc34)C2)c(Cl)c1
4. O=C(OCc1ccccc1)c1ccccc1Cl
5. CC1=C(C)C(=O)C(CNCc2ccccc2)=[C-]C1=O.[Co].[c-]1[c-][c-][cH-][c-]1
6. O/N=C1/CC2CCCc3ccc4cccc1c4c32 (stereo unspecified)

Resp:
["18% (inactive)", "-3% (inactive)", "2% (inactive)", "3% (inactive)", "6% (inactive)", "-18% (inactive)"]

Hi, could you look up growth inhibition for each item in my list?
1. O=C(CC(=O)c1ccccc1)CC(=O)c1ccccc1Cl
2. O=C(Nc1ccc(Cl)cc1Cl)OC(Cn1cncn1)c1ccc(Cl)cc1Cl (stereo unspecified)

Resp:
1. -1% (inactive)
2. 71% (active)
